The reported numbers originate from patent US20180291082A1.

Provide the recorded mean half-life (T1/2) of peptide-MHC complex for the entries that follow.
- Tested target: T1, human recombinant HLA-B*08:01 (human)
- T1 construct: Expressed in E. coli and purified; Assay done by ImmunAware
- Assay overview: pMHC dissociation at 37 C (b2m on heavy chain); mean half-life grade (+ >2 h, ++ >4 h, +++ >6 h, ++++ >10 h)

Entry FQKLKLLSL , mean half-life (T1/2) of peptide-MHC complex reported as 2 to 4 h

Entry NPNLKTLL , mean half-life (T1/2) of peptide-MHC complex reported as 4 to 6 h

Entry DLKYNALDL , mean half-life (T1/2) of peptide-MHC complex reported as 6 to 10 h

Entry LSYNKYLQL , mean half-life (T1/2) of peptide-MHC complex reported as 4 to 6 h

Entry AAMSRYEL , mean half-life (T1/2) of peptide-MHC complex reported as 4 to 6 h

Entry HIFLRTTL , mean half-life (T1/2) of peptide-MHC complex reported as 4 to 6 h

Entry LLKAEPLAF , mean half-life (T1/2) of peptide-MHC complex reported as 4 to 6 h

Entry LPFLRENDL , mean half-life (T1/2) of peptide-MHC complex reported as 4 to 6 h
